Molecular target: T1, human TNFR2 on the cell surface (CHO-TNFR2 cells; human Treg cells) (human, UniProt P20333 23-461)
T1 sequence (looked up): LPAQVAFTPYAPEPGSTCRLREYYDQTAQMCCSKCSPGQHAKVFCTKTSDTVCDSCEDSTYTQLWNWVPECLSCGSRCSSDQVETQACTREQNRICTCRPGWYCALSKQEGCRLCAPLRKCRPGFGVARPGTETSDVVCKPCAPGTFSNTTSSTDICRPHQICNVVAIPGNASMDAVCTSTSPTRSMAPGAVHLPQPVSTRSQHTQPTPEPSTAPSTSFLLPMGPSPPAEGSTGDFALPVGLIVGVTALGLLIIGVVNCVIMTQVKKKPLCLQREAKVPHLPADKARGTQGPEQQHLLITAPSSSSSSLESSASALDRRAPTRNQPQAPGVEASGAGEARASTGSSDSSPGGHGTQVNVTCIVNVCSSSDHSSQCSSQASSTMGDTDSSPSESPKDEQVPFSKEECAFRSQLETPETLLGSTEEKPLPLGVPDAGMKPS
Experiment: cell-based or functional assay
Measured quantity: % AUC versus positive control (#52), ADCC against Treg (%)
Number in %, nothing else.

[[record]]
binder = "TNFR2 antibody #133 (antibody, V domains shown) VH: EVQLQESGAELVRSGASVKLSCTASGFNIKDYYIQWVKQRPEQGLEWIGWIDPESGNTKYAPKFQDKATMTADTSSNTAYLQLSGLTSEDSAVYYCNAYYDYDGSMDYWGQGTTVTVSS VL: DIVMTQSPLSLPVSLGDQASISCRSSQSLVHSNGNTYLHWYLQKPGQSPKLLIYKVSNRFSGVPDRFSGSGSGTDFTLKISRVETDDLGVYFCSQSTHVPTWTFGGGTKLEIK"
quantity_unit = "%"
test_value = 46.6

[[record]]
binder = "TNFR2 antibody #001 (antibody, V domains shown, also called antibody #1) VH: EVQLQESGGGLVQPGGSLNLSCAASGFAFSTYDLSWVRQTPEKRLEWVAYINNGGISTYYSDTVKGRFTISRDNAKNTLYLQMSSLKSEDTAMYYCVRGPFYGSANYFDYWGQGTTVTVSS VL: EIVMTQSPASLSLSVGETVTITCRTSESIYSNLPWYQQKQGKSPQLLVYDATKLAEGVPSRFSGSESGTQYSLKINSLQSEDFGTYYCQHFWVTPWTFGGGTKLEIK"
quantity_unit = "%"
test_value = 80.8


For the next question, use this binder.
Query :: Field request: % AUC versus positive control (#52), ADCC against Treg | item: TNFR2 antibody #309 (antibody, V domains shown) VH: EVQLQESGAELVKPGASVKLSCKASGYTFTSYWIHWVKLRPGQGFEWIGEINPNNGGTDYNEKFKRKATLTVDKSSSTAYMELSSLTSEDSAIYYCTIDSMITTTWFAYWGQGTTVTVSS VL: EIVMTQSQKLMSTVVGDRVSVTCKASQNVGTNVAWFQQKPGQSPKALINSASYRYSGVPDRFTGSGSGTDFTLTISSVQSEDLAEYFCQQYNSYPFTFGSGTKLEIK
Result :: 56
